assay: Half life in rat at 2.5 mg/kg, iv or 5 mg/kg, po; assay type: ADME, organism-based; settings: in vivo
outcome_measure: half-life (h)
Give the value, in units of h, as a plain number.

Query block: Give the measured half-life of COC(=O)N[C@H](C(=O)N1CCC[C@H]1c1ncc(-c2ccc3c(c2)Oc2ccc(-c4cnc([C@@H]5CCCN5C(=O)[C@@H](NC(=O)OC)C(C)C)[nH]4)c4occ-3c24)[nH]1)C(C)C .
Result block: 1.9

---

assay: AUC in rat at 3 mg/kg, iv or 10 mg/kg, po; format: ADME, organism-based; conditions: in vivo
outcome_measure: AUC (µM·h)
Give the quantity in µM·h, number only.

Query block: Fill in: AUC of COC(=O)N[C@H](C(=O)N1CCC[C@H]1c1ncc(-c2ccc3c(c2)Oc2ccc(-c4cnc([C@@H]5CC(F)(F)CN5C(=O)[C@@H](NC(=O)OC)C(C)C)[nH]4)c4ccn-3c24)[nH]1)C(C)C is ___
Result block: 3.98
